# PROCEDURE TEXT: Pharmacokinetic study in vivo
# CONDITION PARAMETERS: rat, plasma; male SD rats; 1 mg/kg IV, 10 mg/kg PO (intragastric), single administration; read-out: Absolute bioavailability(F %)
ATTRIBUTE MEASURED: bioavailability (%)

INSERT INTO measurements (item_smiles, value) VALUES
  ('[2H]C([2H])([2H])NC(=O)c1nnc(NC(=O)C2([2H])CC2)cc1Nc1nccc(-c2ncn(CC#C)n2)c1OC', 97.8);

* * *

# MEASUREMENT TARGET: TYK2-JH2 (Homo sapiens)
# Sequence (P29597 589-875 limits assumed): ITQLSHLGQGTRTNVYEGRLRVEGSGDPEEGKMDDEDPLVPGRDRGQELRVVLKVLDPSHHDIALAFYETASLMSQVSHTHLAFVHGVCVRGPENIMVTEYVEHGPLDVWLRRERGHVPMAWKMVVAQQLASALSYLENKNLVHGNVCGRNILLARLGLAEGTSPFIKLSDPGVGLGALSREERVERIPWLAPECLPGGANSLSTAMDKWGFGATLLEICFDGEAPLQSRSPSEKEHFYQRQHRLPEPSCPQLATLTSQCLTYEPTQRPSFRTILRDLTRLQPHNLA
# PROCEDURE TEXT: Enzymology experiment in vitro: TYK2-JH2 binding (Tb antibody/Tracer fluorescence ratio)
# CONDITION PARAMETERS: read-out: TYK2-JH2 binding inhibitory activity (IC50 value)
pIC50: −log10 of the molar value.
ATTRIBUTE MEASURED: pIC50

INSERT INTO assay_data (item_smiles, measurement_target, attribute_measured, value) VALUES
  ('[2H]C([2H])([2H])NC(=O)c1nnc(NC(=O)C2CC2)cc1Nc1nccc(-c2ncn(C([2H])([2H])C#C)n2)c1OC', 'TYK2-JH2 (Homo sapiens)', 'pIC50', '> 10.00'),
  ('[2H]C([2H])([2H])NC(=O)c1nnc(NC(=O)C2([2H])CC2)cc1Nc1nccc(-c2ncn(CC#C)n2)c1OC', 'TYK2-JH2 (Homo sapiens)', 'pIC50', '> 10.00'),
  ('[2H]C([2H])([2H])NC(=O)c1nnc(NC(=O)C2CC2)nc1Nc1cccc(-c2ncn(CC#C)n2)c1OC', 'TYK2-JH2 (Homo sapiens)', 'pIC50', '9.00 to 9.30'),
  ('[2H]C([2H])([2H])NC(=O)c1nnc(NC(=O)C2CC2)cc1Nc1nccc(-c2ncn(CC#C)n2)c1OC', 'TYK2-JH2 (Homo sapiens)', 'pIC50', '> 10.00'),
  ('[2H]C([2H])([2H])NC(=O)c1nnc(NC(=S)C2CC2)cc1Nc1nccc(-c2ncn(C)n2)c1OC', 'TYK2-JH2 (Homo sapiens)', 'pIC50', '> 10.00'),
  ('[2H]C([2H])([2H])NC(=O)c1nnc(NC(=O)C2CC2)cc1Nc1cccc(-c2ccn(CC#C)n2)c1OC', 'TYK2-JH2 (Homo sapiens)', 'pIC50', '9.30 to 10.00'),
  ('[2H]C([2H])([2H])NC(=O)c1nnc(NC(=O)C2CC2)cc1Nc1cccc(-c2nnn(CC#C)n2)c1OC', 'TYK2-JH2 (Homo sapiens)', 'pIC50', '9.30 to 10.00'),
  ('[2H]C#CC([2H])([2H])n1cnc(-c2ccnc(Nc3cc(NC(=O)C4CC4)nnc3C(=O)NC([2H])([2H])[2H])c2OC)n1', 'TYK2-JH2 (Homo sapiens)', 'pIC50', '> 10.00');
